Kindly supply the reported pIC50 values for the records listed here.
# System: HCT116 (colorectal cancer) cells
# Protocol description: Resazurin-based cell viability assay using colorectal cancer cells
# Test conditions: Homo sapiens, HCT-116, 72 hr incubation
Units for pIC50: none; it is -log10 of a concentration expressed in mol/L.

Memo: `O=C1C=CCCCN1C(=O)/C=C/c1cnc2ccccc2c1` , reported pIC50: 5.77

Memo: `O=C1C=CCCCN1C(=O)/C=C/c1ncccn1` , reported pIC50: 5.89

Memo: `O=C1C=CCCN1C(=O)/C=C/C1CCOCC1` , reported pIC50: 5.42

Memo: `CC(C)(C)OC(=O)N1CCC(/C=C(\C(=O)N2CCC=CC2=O)c2ccccc2)CC1` , reported pIC50: 5.01

Memo: `O=C(Nc1ccc(F)cc1)N1CCC(/C=C/S(=O)(=O)N2CCC=CC2=O)CC1` , reported pIC50: 5.65

Memo: `O=C(c1ccccc1)N1CCC(/C=C/C(=O)N2CCC=CC2=O)CC1` , reported pIC50: 5.85

Memo: `Cn1ccc(/C=C/C(=O)N2CCC=CC2=O)n1` , reported pIC50: 5.67

Memo: `C/C(=C\c1ncccn1)C(=O)N1CCC=CC1=O` , reported pIC50: 5.66

Memo: `CC1(C)C=CC(=O)N(C(=O)/C=C/C2CCN(C(=O)Nc3ccc(F)cc3)CC2)C1` , reported pIC50: 5.15

Memo: `CC(C)(C)OC(=O)N1CCC(/C=C(/C(=O)N2CCC=CC2=O)c2ccccc2)CC1` , reported pIC50: 5.04

Memo: `O=C(/C=C/c1ncccn1)N1CCC=C(Br)C1=O` , reported pIC50: 6.44

Memo: `O=C1C=CCCN1C(=O)/C=C/c1cn[nH]c1` , reported pIC50: 5.57

Memo: `O=C1C=CCCN1C(=O)/C=C/C1CCN(CC2CC2)CC1` , reported pIC50: 5.87

Memo: `C/C(=C/C1CCN(CC2CC2)CC1)C(=O)N1CCC=CC1=O` , reported pIC50: 5.57

Memo: `Cn1cc(/C=C(\C(=O)N2CCC=CC2=O)c2ccccc2)cn1` , reported pIC50: 5.43

Memo: `O=C1C=CCCN1C(=O)/C=C/c1ncc2c(n1)OCCO2` , reported pIC50: 5.49

Memo: `COc1cc(/C=C/C(=O)N2CC(C)(C)C=CC2=O)cc2c1OCCO2` , reported pIC50: 5.00

Memo: CC1C=CC(=O)N(C(=O)/C=C/c2ncccn2)C1 (centres unmarked) , reported pIC50: 5.90

Memo: `O=C1C=CCCCN1C(=O)/C=C/c1cnc2c(c1)OCCO2` , reported pIC50: 5.47

Memo: `O=C1C=CCCN1C(=O)/C=C/c1cnn(C2CC2)c1` , reported pIC50: 5.42

###

# Tested on: MOLP-8
# Protocol description: In vitro cell viability assay (CellTiter-Glo, ATP levels), multiple myeloma cells
# Type: cell-based
# Test conditions: Homo sapiens, MOLP-8, 168 h, 7-day incubation, CellTiter-Glo, average values; read-out: MOLP-8 IC50
Metric name: pIC50
Units for pIC50: none; it is -log10 of a concentration expressed in mol/L.

Memo: COc1cc(/C=C/S(=O)(=O)N2CCC=CC2=O)cc2c1OCCO2 [Compound 76] , reported pIC50: 6.25

Memo: O=C1C=CCCN1C(=O)C=C1c2ccccc2-c2ccccc21 [Compound 10] , reported pIC50: 5.67

Memo: O=C1C=CCCN1C(=O)/C=C/c1ncccn1 [Compound 7] , reported pIC50: 6.24

Memo: O=C(Nc1ccc(F)cc1)N1CCC(/C=C/S(=O)(=O)N2CCC=CC2=O)CC1 [Compound 82] , reported pIC50: 6.44

Memo: O=C1C=CC(O)CN1C(=O)/C=C/c1ncccn1 (stereo not shown) [Compound 32] , reported pIC50: 6.42

Memo: CC(C)(O)CN1CCC(/C=C/C(=O)N2CCC=CC2=O)CC1 [Compound 59] , reported pIC50: 6.41

Memo: O=C1C=CCCN1C(=O)/C=C/C1CCN(S(=O)(=O)c2ccc(F)cc2)CC1 [Compound 51] , reported pIC50: 6.25

Memo: C/C(=C\C1CCN(C(=O)Nc2ccc(F)cc2)CC1)C(=O)N1CCC=CC1=O [Compound 73] , reported pIC50: 6.02

Memo: CC(C)(C)OC(=O)N1CCC(/C=C/C(=O)N2CCC=CC2=O)CC1 [Compound 19] , reported pIC50: 6.39

Memo: O=C1C=CCCCN1C(=O)/C=C/c1cncc2ccccc12 [Compound 12] , reported pIC50: 6.05

Memo: COc1cnc(/C=C/C(=O)N2CCC=CC2=O)nc1 [Compound 63] , reported pIC50: 6.54

Memo: CC1(C)C=CC(=O)N(C(=O)/C=C/c2ncccn2)C1 [Compound 33] , reported pIC50: 6.25

Memo: C/C(=C/C1CCN(CC2CC2)CC1)C(=O)N1CCC=CC1=O [Compound 79] , reported pIC50: 5.99

###

# Tested on: HCT116 (colorectal cancer) cells
# Protocol description: Resazurin-based cell viability assay using colorectal cancer cells
# Test conditions: Homo sapiens, HCT-116, 72 hr incubation
Kindly supply the reported pIC50 values for the records listed here.
Units for pIC50: none; it is -log10 of a concentration expressed in mol/L.

Sample `O=C1C=CCCN1C(=O)/C=C/c1cnc2c(c1)OCCO2` , system: HCT116 (colorectal cancer) cells. Its pIC50 is 5.72

Sample `COc1cc(/C=C/C(=O)N2CCC=CC2=O)cc2c1OCCO2` , system: HCT116 (colorectal cancer) cells. Its pIC50 is 5.72

Sample `Cn1cc(/C=C/C(=O)N2CC(C)(C)C=CC2=O)cn1` , system: HCT116 (colorectal cancer) cells. Its pIC50 is 4.51

Sample `O=C1C=CCCCN1C(=O)/C=C/c1ccccn1` , system: HCT116 (colorectal cancer) cells. Its pIC50 is 5.82

Sample `O=C1C=CCCCN1C(=O)/C=C/c1cnccn1` , system: HCT116 (colorectal cancer) cells. Its pIC50 is 5.62

Sample `O=C1C=CCCCN1C(=O)/C=C/c1ccncc1` , system: HCT116 (colorectal cancer) cells. Its pIC50 is 5.70

Sample `O=C1C=CCCCN1C(=O)/C=C/c1cncc2ccccc12` , system: HCT116 (colorectal cancer) cells. Its pIC50 is 6.02

###

# Test system: MOLP-8
# Protocol description: In vitro cell viability assay (CellTiter-Glo, ATP levels), multiple myeloma cells
# Type: cell-based
# Test conditions: Homo sapiens, MOLP-8, 168 h, 7-day incubation, CellTiter-Glo, average values; read-out: MOLP-8 IC50
Definition: the class of an entry is the range in low group (below 0.5 µM), middle group (0.5 µM to below 0.7 µM), high group (0.7 µM or more) that contains its IC50.

Q: Classify this molecule: `O=C1C=CCCN1C(=O)/C=C/c1cn[nH]c1`
Ans: high group

Q: Classify this molecule: `C/C(=C\C1CCN(C(=O)OC(C)(C)C)CC1)C(=O)N1CCC=CC1=O`
Ans: high group

Q: Classify this molecule: `Cc1noc(/C=C/C(=O)N2CCCC=CC2=O)n1`
Ans: low group

Q: Classify this molecule: `COc1cc(/C=C/C(=O)N2CCC=CC2=O)cc2c1OCCO2`
Ans: high group

Q: Classify this molecule: `COc1cc(/C=C/C(=O)N2CC(C)(C)C=CC2=O)cc2c1OCCO2`
Ans: high group

Q: Classify this molecule: `Cn1cc(/C=C(/C(=O)N2CCC=CC2=O)c2ccccc2)cn1`
Ans: high group

Q: Classify this molecule: CC1C=CC(=O)N(C(=O)/C=C/c2ncccn2)C1 (stereo not shown)
Ans: low group

Q: Classify this molecule: `C/C(=C\c1cnn(C)c1)C(=O)N1CCC=CC1=O`
Ans: high group

Q: Classify this molecule: `O=C(c1ccc(F)cc1)N1CCC(/C=C/C(=O)N2CCC=CC2=O)CC1`
Ans: low group

Q: Classify this molecule: `O=C1C=CCCCN1C(=O)/C=C/c1ccccn1`
Ans: low group

Q: Classify this molecule: `NC(=O)N1CCC(/C=C/C(=O)N2CCC=CC2=O)CC1`
Ans: middle group

Q: Classify this molecule: `O=C(/C=C/c1ncccn1)N1CCC=C(Br)C1=O`
Ans: low group

Q: Classify this molecule: `O=C1C=CCCCN1C(=O)/C=C/c1cccnc1`
Ans: middle group

###

# System: MOLP-8
# Protocol description: In vitro cell viability assay (CellTiter-Glo, ATP levels), multiple myeloma cells
# Assay type: cell-based
# Test conditions: Homo sapiens, MOLP-8, 168 h, 7-day incubation, CellTiter-Glo, average values; read-out: MOLP-8 IC50
Friendly reminder: IC50 below 700 nM is fulfilled, at or above is not fulfilled.

Q: # strict comparison: is reported IC50 < 700 nM? input = CC1(C)C=CC(=O)N(C(=O)/C=C/C2CCN(C(=O)Nc3ccc(F)cc3)CC2)C1 [Compound 70]
Ans: not fulfilled

Q: # strict comparison: is reported IC50 < 700 nM? input = O=C1C=CCCN1C(=O)/C=C/C1CCCCC1 [Compound 2]
Ans: not fulfilled

Q: # strict comparison: is reported IC50 < 700 nM? input = O=C1C=CCCN1C(=O)/C=C/C1CCN(c2ccccn2)CC1 [Compound 74]
Ans: fulfilled

Q: # strict comparison: is reported IC50 < 700 nM? input = C/C(=C/C1CCN(C(=O)Nc2ccc(F)cc2)CC1)C(=O)N1CCC=CC1=O [Compound 78]
Ans: not fulfilled

Q: # strict comparison: is reported IC50 < 700 nM? input = O=C1C=CCCN1C(=O)/C=C/c1cccnn1 [Compound 27]
Ans: not fulfilled
